These measurements were taken from patent US20070086998A1.

Give measured IC50, IL-2 secretion of T-Hyb 1 cells stimulated by 0401-IE transgenic APC; Fab for each item. Keep answers brief.
# target_or_test_system: chimeric DR-IE (human-mouse chimeric MHC class II molecule) (human; murine)
# method_description: cell-based or functional assay

QUERY: Name the recorded IC50, IL-2 secretion of T-Hyb 1 cells stimulated by 0401-IE transgenic APC; Fab for MS-GPC-8-6-19 (Fab) (Fab, V domains shown) VH: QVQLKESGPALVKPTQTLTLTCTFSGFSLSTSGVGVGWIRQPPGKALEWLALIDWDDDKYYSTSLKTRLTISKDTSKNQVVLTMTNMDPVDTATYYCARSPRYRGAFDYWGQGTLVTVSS VL: DIVLTQPPSVSGAPGQRVTISCSGSESNIGSNYVAWYQQLPGTAPKLLIYDNNQRPSGVPDRFSGSKSGTSASLAITGLQSEDEADYYCQSYDYDHYVFGGGTKLTVLG .
RESULT: 5.3 nM (Fab concentration/2)

QUERY: Name the recorded IC50, IL-2 secretion of T-Hyb 1 cells stimulated by 0401-IE transgenic APC; Fab for MS-GPC-8-27-41 (Fab) (Fab, V domains shown) VH: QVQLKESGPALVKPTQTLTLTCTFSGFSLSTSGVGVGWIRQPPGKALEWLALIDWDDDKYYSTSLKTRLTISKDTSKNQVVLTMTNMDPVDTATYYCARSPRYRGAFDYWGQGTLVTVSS VL: DIVLTQPPSVSGAPGQRVTISCSGSESNIGNNYVQWYQQLPGTAPKLLIYDNNQRPSGVPDRFSGSKSGTSASLAITGLQSEDEADYYCQSYDMNVHVFGGGTKLTVLG .
RESULT: 3.6 nM (Fab concentration/2)
